Tested on: KM12 colon
Test: NCI tumour cell line growth inhibition, 48 h
For each entry below, report its TGI value.

Solved entries:
1) COc1cc2ccc3c4cc(OC)c(OCc5ccccc5)cc4cnc3c2cc1OC
> 100 µM
2) O=C(O)c1nnsc1COCc1ccccc1
> 100 µM
3) CN(C)CCNC(=O)c1cc([N+](=O)[O-])cc2ccc(-c3ccccc3)nc12
49.6 µM

Hey, quick one: what's TGI for each of these?
1. CCc1cccc(C)c1NC(=O)CC1Sc2ccccc2NC1=O (configuration not stated)
2. CC(C)n1c(=O)c2nn3c(=O)n(C(C)C)c(=O)c3nn2c1=O
3. O=S1(=O)c2ccccc2N2CCCc3cc(Cl)cc1c32

Reply |
["> 100 µM", "> 100 µM", "> 100 µM"]

Ask | Requested field: TGI. Item: Brc1ccc2c(c1)C1=C(CO2)Cc2ccccc2O1
Reply | 37.2 µM

Origin of values: PubChem BioAssay (NCI)
